System: SGK;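 further: KINOMEscan scanMAX binding as percent activity remaining versus control; lower means stronger binding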
Construct: gene SGK1
Cond: Compound Concentration (nM):1000
Field: Percent Control. Provide a value for each of the compounds that follow.
Record the result as a number with its unit.

- Compound: "COc1cccc(-c2c[nH]c3c(N/N=C/c4ccncc4)ncnc23)c1 [GW814408X]"
  Measured Metric: "Percent Control"
  Value Observed: "22%"

Hey, can you go through the list below and give me Percent Control for every item?
1. CN1CCN(C(=O)c2ccc(NC(=O)Nc3ccc(N(C)c4ccnc(Nc5ccc(CS(C)(=O)=O)cc5)n4)cc3)cc2)CC1.Cl [GW830263A]
2. Nc1ncnc2occ(-c3ccc(NC(=O)Nc4cc(C(F)(F)F)ccc4F)cc3)c12 [GW770249X]
3. Cl.O=S1CCN(Cc2ccc(-c3ccc4ncnc(Nc5ccc(OCc6ccccc6)c(F)c5)c4c3)o2)CC1 [GW576924A]

A.
["57%", "100%", "100%"]
